This listing pairs compounds with measured PDI.
measurementDescription: LNP average particle size and polydispersity by dynamic light scattering
Format: physicochemical
testConditions: LNP with the compound as amine lipid; Expt. 10; composition ratio (mol %) 50/9/38/3 for Cmpnd 49, 50/10/38.5/1.5 for the others
Write the value as a bare number.

Examples with their reported PDI follow.
CCCCC/C=C\C/C=C\CCCCCCCC(=O)OCC(COC(=O)CCCCCCC/C=C\C/C=C\CCCCC)OC(=O)CCC(CCCCCCCC)OC(=O)NCCN(C)C (stereo not shown) [Compound 91]; 0.01
CCCCC/C=C\C/C=C\CCCCCCCC(=O)OCC(COC(=O)CCCCCCC/C=C\C/C=C\CCCCC)OC(=O)CCC(CCCCCCCC)OC(=O)NCCN1CCCC1 (stereo not shown) [Compound 51]; 0.02
CCCCC/C=C\C/C=C\CCCCCCCC(=O)OCC(COC(=O)CCCCCCC/C=C\C/C=C\CCCCC)OC(=O)CCC(CCCCCCCC)OC(=O)OCCCCN(CC)CC (stereo not shown) [Compound 95]; 0.01

Find the measured PDI of CCCCC/C=C\C/C=C\CCCCCCCC(=O)OCC(COC(=O)CCCCCCC/C=C\C/C=C\CCCCC)OC(=O)CCC(CCCCCCCC)OC(=O)OC1CCN(C)CC1 (stereo not shown) [Compound 92] and report it.
0.06
